Cited source: patent US20240124560A1

Items are presented alongside their recorded koff.
- measured.target: MPER peptide PDT-081 (HIV-1)
- experimental.protocol: BLI on PDT-081

Previously resolved entries follow.
PGZL1.H4K3 Fab (Fab, V domains shown) VH: KVQLVQSGAELKKPWSSVRVSCKASGGSFSSYAFNWVRQAPGQRLEWLGGIVPLVSSTNYAQRFRGRVTISADRSTSTVYLEMTGLTSADTAVYFCAREGEGWFGRPLRAFEFWGQGTLVTVST VL: EIVLTQSPGTFALSPGERATLSCRASQSVSGGALAWYQQKAGQAPRLLIYGTSGRATGVPGRFSGSGSETDFSLTISRLEPEDFAVYYCQQYGTSQSTFGQGTRLETR : 0.00051 s⁻¹
H4K3_SFS28EPE Fab (Fab, V domains shown) VH: KVQLVQSGAELKKPWSSVRVSCKASGGEPESYAFNWVRQAPGQRLEWLGGIVPLVSSTNYAQRFRGRVTISADRSTSTVYLEMTGLTSADTAVYFCAREGEGWFGRPLRAFEFWGQGTLVTVST VL: EIVLTQSPGTFALSPGERATLSCRASQSVSGGALAWYQQKAGQAPRLLIYDTSGRATGVPGRFSGSGSETDFSLTISRLEPEDFAVYYCQQYGTSQSTFGQGTRLETR : 0.00054 s⁻¹

--- query ---
In: // koff lookup, key: H4K3_RS73PE Fab (Fab, V domains shown) VH: KVQLVQSGAELKKPWSSVRVSCKASGGSFSSYAFNWVRQAPGQRLEWLGGIVPLVSSTNYAQRFRGRVTISADPETSTVYLEMTGLTSADTAVYFCAREGEGWFGRPLRAFEFWGQGTLVTVST VL: EIVLTQSPGTFALSPGERATLSCRASQSVSGGALAWYQQKAGQAPRLLIYDTSGRATGVPGRFSGSGSETDFSLTISRLEPEDFAVYYCQQYGTSQSTFGQGTRLETR
Out: 0.00051 s⁻¹
